experiment: kinetic solubility in pH 6.5 buffer; assay type: physicochemical; conditions: aqueous buffer pH 6.5, pH 6.5
Listed below: solubility kinetic values for each entry.
measuredEndpoint: solubility kinetic (µg/mL)

[
  {
    "inputSmiles": "Cc1cc(Nc2ccc(C(F)(F)F)nc2)n2nc(C(C)(F)F)nc2n1",
    "measurementQualifier": ">",
    "measuredResult": 100
  },
  {
    "inputSmiles": "Cc1cc(Nc2ccc(S(F)(F)(F)(F)F)cc2)n2nc(C(C)(F)F)nc2n1",
    "measurementQualifier": "=",
    "measuredResult": 12.5
  }
]

###

Molecular target: P. falciparum DHODH (Plasmodium falciparum, UniProt Q08210)
Sequence (Q08210 158-569 limits assumed): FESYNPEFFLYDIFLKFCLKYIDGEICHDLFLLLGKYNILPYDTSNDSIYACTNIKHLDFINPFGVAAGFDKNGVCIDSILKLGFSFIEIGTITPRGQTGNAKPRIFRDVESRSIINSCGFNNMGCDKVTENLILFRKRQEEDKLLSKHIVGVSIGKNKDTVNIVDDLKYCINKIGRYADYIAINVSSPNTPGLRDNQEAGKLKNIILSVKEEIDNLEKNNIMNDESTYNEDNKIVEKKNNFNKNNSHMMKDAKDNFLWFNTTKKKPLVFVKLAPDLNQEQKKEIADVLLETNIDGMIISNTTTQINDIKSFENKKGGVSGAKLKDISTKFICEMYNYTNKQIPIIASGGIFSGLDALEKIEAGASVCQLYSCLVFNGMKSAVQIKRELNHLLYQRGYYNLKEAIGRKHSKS
pIC50: −log10 of the molar value.

[
  {
    "inputSmiles": "Cc1cc(Nc2ccc(C(F)(F)F)nc2)n2nc(C(C)(F)F)nc2n1",
    "studyTarget": "P. falciparum DHODH (Plasmodium falciparum, UniProt Q08210)",
    "pIC50": 7.28
  }
]

###

assay: pharmacokinetics after IV and oral dosing; type: in vivo, rats; details: rat, plasma, po, 4.3 mg/kg

[
  {
    "inputSmiles": "Cc1cc(Nc2ccc(C(F)(F)F)nc2)n2nc(C(C)(F)F)nc2n1",
    "bioavailability": "~80%"
  }
]

###

biological target: P. berghei DHODH (PbDHODH) (Plasmodium berghei)
Sequence (A0A509AEH5 132-517): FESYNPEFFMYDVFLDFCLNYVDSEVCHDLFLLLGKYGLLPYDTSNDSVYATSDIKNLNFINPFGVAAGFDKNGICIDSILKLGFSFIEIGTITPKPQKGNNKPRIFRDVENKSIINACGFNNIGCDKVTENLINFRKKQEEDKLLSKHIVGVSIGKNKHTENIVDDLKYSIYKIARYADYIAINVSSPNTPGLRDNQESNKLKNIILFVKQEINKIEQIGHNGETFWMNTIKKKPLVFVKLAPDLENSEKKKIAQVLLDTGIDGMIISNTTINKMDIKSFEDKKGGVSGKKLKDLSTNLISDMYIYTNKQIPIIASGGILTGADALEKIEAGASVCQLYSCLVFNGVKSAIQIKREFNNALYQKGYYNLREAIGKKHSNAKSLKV
pIC50: −log10 of the molar value.
measuredEndpoint: pIC50

[
  {
    "inputSmiles": "Cc1cc(Nc2ccc(C(F)(F)F)nc2)n2nc(C(C)(F)F)nc2n1",
    "studyTarget": "P. berghei DHODH (PbDHODH) (Plasmodium berghei)",
    "measuredEndpoint": "pIC50",
    "measuredResult": 5.30
  }
]

###

test: P. falciparum SCID mouse efficacy model; type: in vivo; settings: NOD-scid IL-2Rγnull (NSG), mouse, blood, oral, 2.6 mg/kg/day

[
  {
    "inputSmiles": "Cc1cc(Nc2ccc(C(F)(F)F)nc2)n2nc(C(C)(F)F)nc2n1",
    "AUC(0-t)": "12900 ng·h/mL"
  }
]

###

target: hERG channel (Homo sapiens); test: hERG channel patch clamp; type: cell-based; details: hERG IC50, partial dose response curve, maximum concentration 33 μM

[
  {
    "inputSmiles": "Cc1cc(Nc2ccc(C(F)(F)F)nc2)n2nc(C(C)(F)F)nc2n1",
    "studyTarget": "hERG channel (Homo sapiens)",
    "uom": "µM",
    "IC50": 26.2
  }
]

###

target: UniProt Q63707
Sequence (Q63707 whole entry): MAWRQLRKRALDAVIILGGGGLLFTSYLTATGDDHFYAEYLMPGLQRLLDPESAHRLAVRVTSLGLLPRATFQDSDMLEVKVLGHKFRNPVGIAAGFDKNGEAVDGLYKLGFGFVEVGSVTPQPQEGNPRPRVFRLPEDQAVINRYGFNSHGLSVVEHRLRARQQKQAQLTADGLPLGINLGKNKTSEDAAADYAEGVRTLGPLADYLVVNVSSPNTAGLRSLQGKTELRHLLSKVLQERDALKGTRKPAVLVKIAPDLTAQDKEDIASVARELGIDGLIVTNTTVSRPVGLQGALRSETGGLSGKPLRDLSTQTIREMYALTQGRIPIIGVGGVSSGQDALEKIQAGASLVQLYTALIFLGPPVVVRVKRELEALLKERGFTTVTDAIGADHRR
pIC50: −log10 of the molar value.
measuredEndpoint: pIC50

[
  {
    "inputSmiles": "Cc1cc(Nc2ccc(C(F)(F)F)nc2)n2nc(C(C)(F)F)nc2n1",
    "measuredEndpoint": "pIC50",
    "measuredResult": 4.66
  }
]

###

assay: pharmacokinetics after IV and oral dosing; assay type: in vivo, mice; conditions: mouse, plasma, po
measuredEndpoint: Tmax

[
  {
    "inputSmiles": "Cc1cc(Nc2ccc(C(F)(F)F)nc2)n2nc(C(C)(F)F)nc2n1",
    "measuredResult": "1 to 2 h"
  }
]

###

test system: CYP isoforms (all isoforms tested); experiment: cytochrome P450 inhibition, other isoforms and time-dependent inhibition; format: in vitro ADME
pIC50: −log10 of the molar value.
measuredEndpoint: pIC50

[
  {
    "inputSmiles": "Cc1cc(Nc2ccc(C(F)(F)F)nc2)n2nc(C(C)(F)F)nc2n1",
    "measuredEndpoint": "pIC50",
    "measuredResult": "< 4.70"
  }
]

###

assay: pharmacokinetics after IV and oral dosing; type: in vivo, rats; settings: rat, plasma, iv, 2 mg/kg
measuredEndpoint: Vd

[
  {
    "inputSmiles": "Cc1cc(Nc2ccc(C(F)(F)F)nc2)n2nc(C(C)(F)F)nc2n1",
    "measuredResult": "0.8 L/kg"
  }
]

###

assay: pharmacokinetics after IV and oral dosing; format: in vivo, dogs; conditions: dog, plasma, iv, 1 mg/kg

[
  {
    "compound": "Cc1cc(Nc2ccc(C(F)(F)F)nc2)n2nc(C(C)(F)F)nc2n1 [DSM421]",
    "uom": "L/kg",
    "Vd": 0.8
  }
]

###

assay: pharmacokinetics after IV and oral dosing; format: in vivo, rats; details: rat, plasma, iv, 2 mg/kg

[
  {
    "compound": "Cc1cc(Nc2ccc(C(F)(F)F)nc2)n2nc(C(C)(F)F)nc2n1 [DSM421]",
    "clearance / mL/min/kg": 2.4
  }
]

###

molecular target: Minipig DHODH (Sus scrofa, UniProt F1S3B0); test: DHODH inhibition, DCIP-based assay; format: biochemical
Sequence (F1S3B0 1-395): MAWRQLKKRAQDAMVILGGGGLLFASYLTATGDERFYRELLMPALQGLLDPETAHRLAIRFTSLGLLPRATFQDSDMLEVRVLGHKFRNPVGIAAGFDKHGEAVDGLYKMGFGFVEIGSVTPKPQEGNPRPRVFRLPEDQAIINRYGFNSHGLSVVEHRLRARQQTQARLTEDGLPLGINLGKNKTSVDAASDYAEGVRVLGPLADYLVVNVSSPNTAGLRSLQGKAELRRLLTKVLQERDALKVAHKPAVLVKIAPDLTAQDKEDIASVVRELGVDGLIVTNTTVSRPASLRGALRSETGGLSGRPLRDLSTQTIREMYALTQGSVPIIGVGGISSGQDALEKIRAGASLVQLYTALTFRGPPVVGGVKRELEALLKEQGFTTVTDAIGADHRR
measuredEndpoint: IC50

[
  {
    "inputSmiles": "Cc1cc(Nc2ccc(C(F)(F)F)nc2)n2nc(C(C)(F)F)nc2n1",
    "measuredResult": "> 100 µM"
  }
]

###

experiment: pharmacokinetics after IV and oral dosing; assay type: in vivo, dogs; conditions: dog, plasma, iv, 1 mg/kg

[
  {
    "inputSmiles": "Cc1cc(Nc2ccc(C(F)(F)F)nc2)n2nc(C(C)(F)F)nc2n1",
    "clearance": "0.03 L/h/kg"
  }
]

###

Molecular target: P. vivax DHODH (Plasmodium vivax, UniProt A5K1N1)
Sequence (A5K1N1 160-572): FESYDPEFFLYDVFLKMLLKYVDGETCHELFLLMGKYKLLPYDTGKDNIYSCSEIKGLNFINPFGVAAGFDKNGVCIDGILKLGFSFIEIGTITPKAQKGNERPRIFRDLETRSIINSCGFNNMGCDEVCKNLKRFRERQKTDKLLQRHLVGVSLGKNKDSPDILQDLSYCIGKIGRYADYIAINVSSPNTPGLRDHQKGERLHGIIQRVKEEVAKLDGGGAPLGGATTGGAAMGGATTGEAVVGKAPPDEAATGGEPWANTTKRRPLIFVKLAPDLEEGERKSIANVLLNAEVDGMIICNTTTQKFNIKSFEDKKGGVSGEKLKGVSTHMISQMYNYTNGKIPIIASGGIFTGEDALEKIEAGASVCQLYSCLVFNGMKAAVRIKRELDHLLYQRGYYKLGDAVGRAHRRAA
pIC50: −log10 of the molar value.

[
  {
    "molecule": "Cc1cc(Nc2ccc(C(F)(F)F)nc2)n2nc(C(C)(F)F)nc2n1 [DSM421]",
    "pIC50": 7.03
  }
]

###

experiment: pharmacokinetics after IV and oral dosing; format: in vivo, dogs; settings: dog, plasma, intravenous, 1 mg/kg

[
  {
    "inputSmiles": "Cc1cc(Nc2ccc(C(F)(F)F)nc2)n2nc(C(C)(F)F)nc2n1",
    "uom": "mL/min/kg",
    "CLint scaled": 4.5
  }
]

###

test: human pharmacokinetic and dose predictions; details: human, plasma, estimated human half-life
measuredEndpoint: half-life (h)

[
  {
    "inputSmiles": "Cc1cc(Nc2ccc(C(F)(F)F)nc2)n2nc(C(C)(F)F)nc2n1",
    "measuredResult": 78
  }
]

###

biological target: CYP2C9 (Homo sapiens); assay: reversible cytochrome P450 inhibition; type: in vitro ADME
Sequence (P11712 whole entry): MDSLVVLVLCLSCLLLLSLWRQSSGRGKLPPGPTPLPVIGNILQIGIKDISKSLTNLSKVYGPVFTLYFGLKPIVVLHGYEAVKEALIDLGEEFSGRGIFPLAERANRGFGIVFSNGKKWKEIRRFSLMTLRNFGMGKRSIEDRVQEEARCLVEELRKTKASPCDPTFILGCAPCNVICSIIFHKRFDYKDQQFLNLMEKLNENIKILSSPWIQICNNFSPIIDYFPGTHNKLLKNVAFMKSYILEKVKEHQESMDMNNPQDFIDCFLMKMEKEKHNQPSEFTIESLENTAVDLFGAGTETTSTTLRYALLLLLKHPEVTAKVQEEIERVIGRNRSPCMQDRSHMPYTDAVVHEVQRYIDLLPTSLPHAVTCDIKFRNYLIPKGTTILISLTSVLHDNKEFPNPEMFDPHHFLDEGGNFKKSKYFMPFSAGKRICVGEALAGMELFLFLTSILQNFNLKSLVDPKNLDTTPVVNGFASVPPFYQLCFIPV
measuredEndpoint: inhibition at 20 µM

[
  {
    "inputSmiles": "Cc1cc(Nc2ccc(C(F)(F)F)nc2)n2nc(C(C)(F)F)nc2n1",
    "measuredResult": "22%"
  }
]

###

assay: cytotoxicity against a human cell line; format: cell-based; settings: human, HepG2 cells

[
  {
    "inputSmiles": "Cc1cc(Nc2ccc(C(F)(F)F)nc2)n2nc(C(C)(F)F)nc2n1",
    "EC50": "> 50 µM"
  }
]

###

target: hERG channel (Homo sapiens, UniProt Q12809); experiment: hERG channel patch clamp; assay type: cell-based; details: hERG IC50, partial dose response curve
Sequence (Q12809 whole entry): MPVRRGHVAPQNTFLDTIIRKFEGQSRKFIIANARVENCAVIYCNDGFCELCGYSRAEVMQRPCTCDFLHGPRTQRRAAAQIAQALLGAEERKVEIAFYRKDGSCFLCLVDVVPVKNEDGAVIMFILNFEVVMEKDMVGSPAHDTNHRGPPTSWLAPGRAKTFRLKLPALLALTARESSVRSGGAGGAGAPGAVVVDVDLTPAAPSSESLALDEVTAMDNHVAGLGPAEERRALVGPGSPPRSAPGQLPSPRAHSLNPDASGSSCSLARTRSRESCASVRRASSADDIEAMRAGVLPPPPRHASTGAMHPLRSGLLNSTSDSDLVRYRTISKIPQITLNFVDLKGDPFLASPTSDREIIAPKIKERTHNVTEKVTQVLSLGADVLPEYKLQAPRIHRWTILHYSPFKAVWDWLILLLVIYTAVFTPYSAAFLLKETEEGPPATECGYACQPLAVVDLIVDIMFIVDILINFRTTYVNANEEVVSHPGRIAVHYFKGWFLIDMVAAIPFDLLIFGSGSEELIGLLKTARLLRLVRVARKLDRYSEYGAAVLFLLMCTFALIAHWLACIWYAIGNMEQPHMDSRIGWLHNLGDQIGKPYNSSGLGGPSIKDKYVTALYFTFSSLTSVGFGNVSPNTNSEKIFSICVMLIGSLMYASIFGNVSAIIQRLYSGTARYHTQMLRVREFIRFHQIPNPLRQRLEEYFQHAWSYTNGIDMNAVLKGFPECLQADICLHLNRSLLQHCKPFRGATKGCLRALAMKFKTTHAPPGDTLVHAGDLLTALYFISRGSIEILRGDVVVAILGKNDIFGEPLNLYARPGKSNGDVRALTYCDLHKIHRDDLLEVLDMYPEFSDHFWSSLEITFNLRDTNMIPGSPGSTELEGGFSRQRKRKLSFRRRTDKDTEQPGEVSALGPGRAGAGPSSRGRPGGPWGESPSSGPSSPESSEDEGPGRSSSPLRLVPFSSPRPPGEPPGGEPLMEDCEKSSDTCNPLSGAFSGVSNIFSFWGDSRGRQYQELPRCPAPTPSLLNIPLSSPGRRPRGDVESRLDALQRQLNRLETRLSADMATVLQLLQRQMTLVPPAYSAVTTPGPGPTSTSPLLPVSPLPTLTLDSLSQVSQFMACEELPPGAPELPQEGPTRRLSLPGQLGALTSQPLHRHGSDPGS

[
  {
    "inputSmiles": "Cc1cc(Nc2ccc(C(F)(F)F)nc2)n2nc(C(C)(F)F)nc2n1",
    "uom": "µM",
    "IC50": 26.2
  }
]

###

assay: pharmacokinetics after IV and oral dosing; assay type: in vivo, mice; conditions: mouse, plasma, po
measuredEndpoint: bioavailability

[
  {
    "inputSmiles": "Cc1cc(Nc2ccc(C(F)(F)F)nc2)n2nc(C(C)(F)F)nc2n1",
    "measuredResult": "> 100%"
  }
]
